assayed.system: mouse TLR7 (Mus musculus, UniProt P58681)
Sequence (P58681 27-1050): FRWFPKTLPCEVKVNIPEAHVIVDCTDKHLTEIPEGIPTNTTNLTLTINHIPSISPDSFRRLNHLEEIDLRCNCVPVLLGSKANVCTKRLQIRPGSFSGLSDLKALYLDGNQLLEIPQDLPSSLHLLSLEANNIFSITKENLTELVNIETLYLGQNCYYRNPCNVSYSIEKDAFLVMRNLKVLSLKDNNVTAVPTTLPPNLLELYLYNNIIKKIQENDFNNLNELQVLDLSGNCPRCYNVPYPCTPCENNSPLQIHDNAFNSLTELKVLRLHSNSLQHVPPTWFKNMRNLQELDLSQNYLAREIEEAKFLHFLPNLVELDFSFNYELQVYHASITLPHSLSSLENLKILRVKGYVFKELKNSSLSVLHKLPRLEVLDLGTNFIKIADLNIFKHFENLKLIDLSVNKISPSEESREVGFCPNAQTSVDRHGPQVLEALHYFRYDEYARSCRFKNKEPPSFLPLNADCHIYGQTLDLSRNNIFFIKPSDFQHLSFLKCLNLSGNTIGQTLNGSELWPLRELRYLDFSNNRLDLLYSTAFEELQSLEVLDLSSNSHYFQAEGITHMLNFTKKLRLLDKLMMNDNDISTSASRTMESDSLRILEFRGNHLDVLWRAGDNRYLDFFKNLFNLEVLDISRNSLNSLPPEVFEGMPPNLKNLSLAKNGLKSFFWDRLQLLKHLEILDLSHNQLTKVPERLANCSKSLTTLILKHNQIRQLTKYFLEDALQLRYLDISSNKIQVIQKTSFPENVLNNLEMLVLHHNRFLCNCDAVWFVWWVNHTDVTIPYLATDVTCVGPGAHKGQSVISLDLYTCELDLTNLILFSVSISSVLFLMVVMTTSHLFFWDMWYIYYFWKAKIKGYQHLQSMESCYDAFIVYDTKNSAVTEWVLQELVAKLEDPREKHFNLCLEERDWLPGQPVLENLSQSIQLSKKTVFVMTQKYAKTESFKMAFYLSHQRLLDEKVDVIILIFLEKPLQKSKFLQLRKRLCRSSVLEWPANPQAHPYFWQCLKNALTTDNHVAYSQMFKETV
procedure.details: Short-term in vivo (STIV) assay: oral dosing, R848 s.c., plasma IL-6
Set-up: female BALB/c mice (Jackson Labs, Bar Harbor, Me.) were dosed by oral gavage; tissue Jackson Labs; host or cells: living female BALB/c mice; plasma IL-6 after s.c. R848
recorded.conditions: 6 h; 300 mg/kg
The molecules listed here are annotated with their % Suppression vs. Vehicle.
Response body: numeric value in %, unit text excluded.

Answered examples (6):
molecule	assayed.system	% Suppression vs. Vehicle [%]
C[C@@H]1CN(C[C@H]2CN(c3ccc(C#N)c4ncccc34)C[C@@H](C)O2)CCN1 [ER-887269]	mouse TLR7 (Mus musculus, UniProt P58681)	98
C[C@@H]1CN(c2ccc(C#N)c3ncccc23)C[C@H](CN2CC[C@H](O)C2)O1 [ER-886820]	mouse TLR7 (Mus musculus, UniProt P58681)	100
C[C@@H]1CN(c2ccc(C#N)c3ncccc23)C[C@H](CN2CCC(N3CCCCC3)CC2)O1 [ER-887927]	mouse TLR7 (Mus musculus, UniProt P58681)	100
CC1CN(c2ccc(C#N)c3ncccc23)CC(CN2CCCC2CO)O1 (stereo not shown) [ER-886814]	mouse TLR7 (Mus musculus, UniProt P58681)	100
COc1cccnc1NC[C@H]1CN(c2ccc(C#N)c3ncccc23)C[C@@H](C)O1 [ER-886948]	mouse TLR7 (Mus musculus, UniProt P58681)	81
CC(=O)NC1CCN(CC2CN(c3ccc(C#N)c4ncccc34)CC(C)O2)CC1 (stereo not shown) [ER-888288]	mouse TLR7 (Mus musculus, UniProt P58681)	97

input: Quick check: % Suppression vs. Vehicle of C[C@@H]1CN(c2ccc(C#N)c3ncccc23)C[C@H](CN2CCC(N)CC2)O1 [ER-888070] ?
output: 100

input: Quick check: % Suppression vs. Vehicle of CC(C)N1CCN(C[C@H]2CN(c3ccc(C#N)c4ncccc34)C[C@@H](C)O2)CC1 [ER-888322] ?
output: 100

input: Quick check: % Suppression vs. Vehicle of Cc1cc(CO)cc(-c2ccc(C#N)c3ncccc23)c1 [ER-888201] ?
output: 40

input: Quick check: % Suppression vs. Vehicle of CC1CN(c2ccc(C#N)c3ncccc23)CC(CN2CCC(N(C)C)CC2)O1 (stereo not shown) [ER-887725] ?
output: 99

input: Quick check: % Suppression vs. Vehicle of C[C@@H]1CN(c2ccc(C#N)c3ncccc23)C[C@H](CN2CCC(O)CC2)O1 [ER-886953] ?
output: 99

input: Quick check: % Suppression vs. Vehicle of CCCN1CCN(C[C@H]2CN(c3ccc(C#N)c4ncccc34)C[C@@H](C)O2)CC1 [ER-887724] ?
output: 99

input: Quick check: % Suppression vs. Vehicle of CC[C@H]1CN(C[C@H]2CN(c3ccc(C#N)c4ncccc34)C[C@@H](C)O2)CCN1 [ER-890963] ?
output: 100

input: Quick check: % Suppression vs. Vehicle of CC1CN(c2ccc(C#N)c3ncccc23)CC(CN2CCNC(C)C2C)O1 (stereo not shown) [ER-887137] ?
output: 100

input: Quick check: % Suppression vs. Vehicle of C[C@@H]1CN(c2ccc(C#N)c3ncccc23)C[C@H](CN2CCN(C)CC2)O1 [ER-887723] ?
output: 100

input: Quick check: % Suppression vs. Vehicle of C[C@@H]1CN(c2ccc(C#N)c3ncccc23)C[C@H](CNc2ccccn2)O1 [ER-886788] ?
output: 26
